# Test system: SORVU (Sorghum bicolor (L.) Moench ssp. Bicolor, or Sorghum vulgare Pers.)
# EXPERIMENT_DESCRIPTION: Biological Example 2 glasshouse assay for herbicidal activity
# Format: in vivo
# CONDITIONS_USED: post-emergence, 360 h, 250 g/ha, 14 or 15 DAA, 0.2% v/v X-77, read-out: percentage phytotoxicity SORVU
# Experimental: Seeds of a variety of monocotyledonous and dicotyledonous test plants are sown in standard soil in pots. The plants are cultivated for one day (for pre-emergence) or for about 12 days (range=10-13 days) (for post-emergence) under controlled conditions in a glasshouse (warm climate species at 24/18° C., cool climate species at 20/16° C., both at day/night; 16 hours light; 65% humidity). […]
EXPERIMENTAL_READOUT: pest or weed control at 250 g/ha (%)
Express it in %; write the number only.

MOLECULE	UNIT_ANNOTATION	pest or weed control at 250 g/ha
CC#Cc1cc(F)c(C2=C(OC(=O)OC(C)C)C3CCC(C3)C2=O)c(OC)c1 (stereo not drawn) [Compound P3]	%	100
CC#Cc1cc(F)c(C2=C(OC(=O)C(C)(C)C)C3CCC(C3)C2=O)c(OC)c1 (stereo not drawn) [Compound P1]	%	100

// below: pest or weed control at 250 g/ha requested for another molecule
Input line: For the record CC#Cc1cc(F)c(C2C(=O)C3CCC(C3)C2=O)c(OC)c1 (stereo not drawn) [Compound A1] , what value of pest or weed control at 250 g/ha is listed for SORVU (Sorghum bicolor (L.) Moench ssp. Bicolor, or Sorghum vulgare Pers.)?
Output line: 100

###

# Tested on: Digitaria sanguinalis (DIGSA)
# EXPERIMENT_DESCRIPTION: Biological Example 2 glasshouse assay for herbicidal activity
# Assay type: in vivo
# CONDITIONS_USED: post-emergence, 360 h, 250 g/ha, 14 or 15 DAA, 0.2% v/v X-77, read-out: percentage phytotoxicity DIGSA
EXPERIMENTAL_READOUT: pest or weed control at 250 g/ha
Answer with the number, then the unit.

MOLECULE	SYSTEM_NAME	pest or weed control at 250 g/ha
CC#Cc1cc(F)c(C2=C(OC(=O)OC(C)C)C3CCC(C3)C2=O)c(OC)c1 (stereo not shown) [Compound P3]	Digitaria sanguinalis (DIGSA)	100%
CC#Cc1cc(F)c(C2C(=O)C3CCC(C3)C2=O)c(OC)c1 (stereo not shown) [Compound A1]	Digitaria sanguinalis (DIGSA)	100%
CC#Cc1cc(F)c(C2=C(OC(=O)C(C)(C)C)C3CCC(C3)C2=O)c(OC)c1 (stereo not shown) [Compound P1]	Digitaria sanguinalis (DIGSA)	100%
CC#Cc1cc(F)c(C2C(=O)C3CCC(C)(C2=O)C3(C)C)c(OC)c1 (stereo not shown) [Compound A2]	Digitaria sanguinalis (DIGSA)	80%
CC#Cc1cc(F)c(C2=C(OC(=O)c3ccccc3)C3CCC(C3)C2=O)c(OC)c1 (stereo not shown) [Compound P5]	Digitaria sanguinalis (DIGSA)	100%
CC#Cc1cc(F)c(C2=C(OC(=O)SCC)C3CCC(C3)C2=O)c(OC)c1 (stereo not shown) [Compound P4]	Digitaria sanguinalis (DIGSA)	100%

Proceed to the following item.
Input line: Name the reported pest or weed control at 250 g/ha value associated with the molecule CC#Cc1cc(F)c(C2C(=O)C3CCC(C3)C2=O)c(OC(F)F)c1 (stereo not shown) [Compound A7]
Output line: 100%
